- System: Human immunodeficiency virus 1
- assay info: Antiviral activity against HIV1 BaL infected in CD4/CCR5 expressing human PBMC cells by reverse transcriptase activity and/or p24 antigen content detection based assay
- Type: functional, organism-based
- conditions: Human immunodeficiency virus 1, BaL
parameter: pIC50
One number for each entry, as −log10 of the molar value.

Identify measured pIC50 corresponding to `c1ccc(Cc2cn[nH]c2C2CCN(Cc3ccncc3)CC2)cc1`
5.64

====

- study target: C-C chemokine receptor type 5 (Homo sapiens, UniProt P51681)
- Sequence (P51681 whole entry): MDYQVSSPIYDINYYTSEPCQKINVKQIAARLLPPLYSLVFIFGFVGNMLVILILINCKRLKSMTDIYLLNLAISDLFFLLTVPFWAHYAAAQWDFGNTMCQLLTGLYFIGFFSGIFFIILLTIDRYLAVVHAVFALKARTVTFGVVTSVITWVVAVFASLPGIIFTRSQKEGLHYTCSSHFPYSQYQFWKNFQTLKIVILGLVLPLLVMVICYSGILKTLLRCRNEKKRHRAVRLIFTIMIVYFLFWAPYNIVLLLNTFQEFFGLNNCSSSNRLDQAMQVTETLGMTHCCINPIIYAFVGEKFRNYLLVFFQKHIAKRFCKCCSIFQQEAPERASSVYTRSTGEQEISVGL
parameter: pIC50
Answers are plain numbers, as −log10 of the molar value.

Identify measured pIC50 corresponding to `COc1ncc(CN2CCC(c3[nH]ncc3Cc3ccccc3)CC2)cn1`
4.15
